Please go through the items and note down their pIC50.
- assayed-system: UniProtKB P56817
- assay-remarks: Inhibitory activity against beta-secretase 1 (BACE1)
Numbered stars: 1 amine (or outer) side, 2 acyl side, 3 side chain; on linkers, the order of the positions; unused ones are H or OH. Square brackets hold non-standard residues; d marks the D form. Peptide text beside a SMILES is read from it. β3hPhe(2R-OH) = O=C([C@H](O)[C@H](Cc1ccccc1)N[*:1])[*:2]; Oxalyl = O=C(C(=O)[*:2])[*:1]; Dap = NC[C@H](N)C(=O)O
Kindly note that pIC50 refers to -log10 of the concentration in mol/L and answer with the value alone.

API: value(readout= pIC50, system= UniProtKB P56817, query= CC(C)C[C@H](NC(=O)[C@@H](NC(=O)[C@@H](N)CNC(=O)C(=O)O)C(C)C)C(=O)N[C@@H](Cc1ccccc1)[C@@H](O)C(=O)N[C@@H](CC(=O)O)C(=O)N[C@@H](C)C(=O)N[C@@H](CCC(=O)O)C(=O)O (H-[Dap](Oxalyl)VL[β3hPhe(2R-OH)]DAE-OH) )
7.08

API: value(readout= pIC50, system= UniProtKB P56817, query= "CC(C)C[C@H](NC(=O)[C@@H](NC(=O)[C@@H](N)CNC(=O)C(=O)O)C(C)C)C(=O)N[C@@H](Cc1ccccc1)[C@@H](O)C(=O)Nc1cc(C(=O)O)cc(C(=O)O)c1" )
8.33

API: value(readout= pIC50, system= UniProtKB P56817, query= "CC(C)C[C@H](NC(=O)[C@@H](NC(=O)[C@@H](N)CNC(=O)C(=O)O)C(C)C)C(=O)N[C@@H](Cc1ccccc1)[C@@H](O)C(=O)Nc1cccc(C(=O)O)c1" )
7.80

API: value(readout= pIC50, system= UniProtKB P56817, query= "CC(C)C[C@H](NC(=O)[C@@H](NC(=O)[C@@H](N)CNC(=O)c1nnn[nH]1)C(C)C)C(=O)N[C@@H](Cc1ccccc1)[C@@H](O)C(=O)Nc1cc(C(=O)O)cc(C(=O)O)c1" )
8.41

###

- assayed-system: Beta-secretase 1 (Homo sapiens)
- Sequence (P56817 whole entry): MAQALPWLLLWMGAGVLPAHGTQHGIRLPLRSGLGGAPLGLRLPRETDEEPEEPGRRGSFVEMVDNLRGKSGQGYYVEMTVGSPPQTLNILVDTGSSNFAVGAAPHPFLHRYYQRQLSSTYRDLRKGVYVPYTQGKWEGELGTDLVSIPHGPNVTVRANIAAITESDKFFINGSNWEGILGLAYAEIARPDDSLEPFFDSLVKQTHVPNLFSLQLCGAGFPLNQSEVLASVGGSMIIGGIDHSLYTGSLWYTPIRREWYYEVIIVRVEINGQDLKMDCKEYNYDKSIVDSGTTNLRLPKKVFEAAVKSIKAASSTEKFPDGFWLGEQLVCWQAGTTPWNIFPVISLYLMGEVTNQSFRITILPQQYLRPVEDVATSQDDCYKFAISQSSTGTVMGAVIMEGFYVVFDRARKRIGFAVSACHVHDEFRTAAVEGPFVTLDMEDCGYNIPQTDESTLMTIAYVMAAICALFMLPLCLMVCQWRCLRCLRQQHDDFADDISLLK
- assay-remarks: Inhibitory activity against beta-secretase 1 (BACE1) at 2 uM
Numbered stars: 1 amine (or outer) side, 2 acyl side, 3 side chain; on linkers, the order of the positions; unused ones are H or OH. Square brackets hold non-standard residues; d marks the D form. Peptide text beside a SMILES is read from it. * marks the point of attachment. β3hPhe(2R-OH) = O=C([C@H](O)[C@H](Cc1ccccc1)N[*:1])[*:2]; Tetrazole5carbonyl = O=C(c1nn[nH]n1)*; Dap = NC[C@H](N)C(=O)O
measurement-type: inhibition (%)
Write it as a number; the unit % goes unstated.

Fill in: inhibition of "CC(C)C[C@H](NC(=O)[C@@H](NC(=O)[C@@H](N)CNC(=O)c1nn[nH]n1)C(C)C)C(=O)N[C@@H](Cc1ccccc1)[C@@H](O)C(=O)Nc1cc(C(=O)O)cc(C(=O)O)c1" is ___
100

Fill in: inhibition of CC(C)C[C@H](NC(=O)[C@@H](NC(=O)[C@H](CN)NC(=O)c1nn[nH]n1)C(C)C)C(=O)N[C@@H](Cc1ccccc1)[C@@H](O)C(=O)N[C@@H](CC(=O)O)C(=O)N[C@@H](C)C(=O)N[C@@H](CCC(=O)O)C(=O)O (Tetrazole5carbonyl-[Dap]VL[β3hPhe(2R-OH)]DAE-OH) is ___
23.2

Fill in: inhibition of "CC(C)C[C@H](NC(=O)[C@@H](NC(=O)[C@H](CN)NC(=O)c1nn[nH]n1)C(C)C)C(=O)N[C@@H](Cc1ccccc1)[C@@H](O)C(=O)Nc1cccc(C(=O)O)c1" is ___
0

Fill in: inhibition of CC(C)C[C@H](NC(=O)[C@@H](NC(=O)[C@@H](N)CNC(=O)c1nn[nH]n1)C(C)C)C(=O)N[C@@H](Cc1ccccc1)[C@@H](O)C(=O)N[C@@H](CC(=O)O)C(=O)N[C@@H](C)C(=O)N[C@@H](CCC(=O)O)C(=O)O (H-[Dap](Tetrazole5carbonyl)VL[β3hPhe(2R-OH)]DAE-OH) is ___
93
